Exercise: state measured Rf for each of the compounds provided.
- METHOD: Retardation factor of the compound using EtOCH2CH2OH-HCl(11N)-H2O at ratio of 8:1:1 as solvent system by thin layer chromatography
- Type: physicochemical
- MEASUREMENT SETUP: buffer
Numbers only.

[[record]]
cpd_smiles = "Cl.Cn1cncc1CCN"
experimental_value = 0.56

[[record]]
cpd_smiles = "CNCCc1[nH]cnc1C.Cl"
experimental_value = 0.7


For every item in the list below, what is its measured Rf?
1. NCCc1c[nH]cn1
2. CNCCc1cnc[nH]1.Cl

1. 0.7
2. 0.68

For every item in the list below, what is its measured Rf?
1. Cc1nc[nH]c1CCN(C)C.Cl
2. Cc1nc[nH]c1CCN.Cl

1: 0.57; 2: 0.7

* * *

- METHOD: Retardation factor of the compound using MeOH-NH4OH-H2O at ratio of 6:1:1 as solvent system by thin layer chromatography
- Assay type: physicochemical
Exercise: state measured Rf for each of the compounds provided.
Give bare numbers.

Below are worked cases with known answers.
[[record]]
cpd_smiles = "CNCCc1[nH]cnc1C.Cl"
recorded_metric = "Rf"
experimental_value = 0.51

[[record]]
cpd_smiles = "CNCCc1cnc[nH]1.Cl"
recorded_metric = "Rf"
experimental_value = 0.46


For every item in the list below, what is its measured Rf?
1. Cl.Cn1cncc1CCN
2. Cc1nc[nH]c1CCN(C)C.Cl
3. NCCc1c[nH]cn1
4. Cc1nc[nH]c1CCN.Cl

[0.63, 0.72, 0.52, 0.56]

* * *

- TESTED ON: Histamine H1 receptor (Cavia porcellus)
- METHOD: In vitro agonist activity at histamine H1 receptor in guinea pig ileum assessed as contractile response relative to histamine in presence of atropine
- Format: tissue-based
RECORDED METRIC: Activity (%)
One number for each entry, in %.

[[record]]
compound = "CC(N)Cc1cnc[nH]1.Cl (stereo not drawn)"
recorded_metric = "Activity"
experimental_value = 0.36


Next compound, please.
Need Activity of Cc1ncc(CCN(C)C)[nH]1.Cl , thanks. 16.8
